target: human Sirtuin 1 (SIRT1), SIRT1 (gene 23411) (UniProt Q96EB6); assay: NVS_ENZ_hSIRT1: NovaScreen (NVS) Enzymatic Assay for human Sirtuin 1 (SIRT1) (AID 2283219)
Sequence (Q96EB6 whole entry, looked up): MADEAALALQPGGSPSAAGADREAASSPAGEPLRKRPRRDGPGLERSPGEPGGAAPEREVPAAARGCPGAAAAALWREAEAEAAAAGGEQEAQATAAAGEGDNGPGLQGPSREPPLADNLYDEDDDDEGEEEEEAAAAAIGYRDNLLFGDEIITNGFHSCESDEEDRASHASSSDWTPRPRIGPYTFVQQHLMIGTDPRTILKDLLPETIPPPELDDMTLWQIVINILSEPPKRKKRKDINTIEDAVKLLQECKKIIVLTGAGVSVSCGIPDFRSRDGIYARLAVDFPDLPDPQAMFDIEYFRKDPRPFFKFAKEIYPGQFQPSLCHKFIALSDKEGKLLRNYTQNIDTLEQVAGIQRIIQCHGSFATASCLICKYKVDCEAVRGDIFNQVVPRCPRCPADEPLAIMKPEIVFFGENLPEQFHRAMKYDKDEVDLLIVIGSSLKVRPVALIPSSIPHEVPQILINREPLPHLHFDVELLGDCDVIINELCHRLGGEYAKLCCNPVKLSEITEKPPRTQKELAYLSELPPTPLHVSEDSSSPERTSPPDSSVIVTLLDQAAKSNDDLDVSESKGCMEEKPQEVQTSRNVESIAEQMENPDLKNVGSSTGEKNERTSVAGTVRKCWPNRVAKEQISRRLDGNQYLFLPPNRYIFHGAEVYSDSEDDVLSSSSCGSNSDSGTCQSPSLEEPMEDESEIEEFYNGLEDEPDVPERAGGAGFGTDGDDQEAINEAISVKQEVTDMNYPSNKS
Inconclusive results are not listed. Calls of active or inactive are those of the source. How the source made its calls: active means hit-call score of the fitted dose curve at least 0.9, where 1 is the maximum; inconclusive means response in the unintended direction; inactive means score below 0.9.
# valid calls are TRUE (active), FALSE (inactive); nothing else

These solved cases illustrate the format of a correct answer.
> print(dat)
                                   compound  group.label
1                             CCCCCCCC(=O)O         TRUE
2  Cc1cc(CCN2CCN(c3nsc4ccccc34)CC2)cc2c1NC(=O)CC2(C)C        FALSE
3         COCC(C)OCC(C)O (stereo not given)        FALSE
4                        Nc1cccc2c(N)cccc12        FALSE

Lookup: I would be grateful if you could indicate the recorded call for "CC[C@H](C)[C@@H](C(=O)O)n1sc2ccccc2c1=O" .
Found: FALSE
